Sourced from paper PMC10003010

Target: human ABCB4 (Homo sapiens, UniProt P21439)
Construct: expressed in transfected cells; host or cells: Abcb1KO-MDCKII (canine kidney, Abcb1 knockout), lentiviral transduction, single clone
Sequence (P21439 1-1279 isoform P21439-2): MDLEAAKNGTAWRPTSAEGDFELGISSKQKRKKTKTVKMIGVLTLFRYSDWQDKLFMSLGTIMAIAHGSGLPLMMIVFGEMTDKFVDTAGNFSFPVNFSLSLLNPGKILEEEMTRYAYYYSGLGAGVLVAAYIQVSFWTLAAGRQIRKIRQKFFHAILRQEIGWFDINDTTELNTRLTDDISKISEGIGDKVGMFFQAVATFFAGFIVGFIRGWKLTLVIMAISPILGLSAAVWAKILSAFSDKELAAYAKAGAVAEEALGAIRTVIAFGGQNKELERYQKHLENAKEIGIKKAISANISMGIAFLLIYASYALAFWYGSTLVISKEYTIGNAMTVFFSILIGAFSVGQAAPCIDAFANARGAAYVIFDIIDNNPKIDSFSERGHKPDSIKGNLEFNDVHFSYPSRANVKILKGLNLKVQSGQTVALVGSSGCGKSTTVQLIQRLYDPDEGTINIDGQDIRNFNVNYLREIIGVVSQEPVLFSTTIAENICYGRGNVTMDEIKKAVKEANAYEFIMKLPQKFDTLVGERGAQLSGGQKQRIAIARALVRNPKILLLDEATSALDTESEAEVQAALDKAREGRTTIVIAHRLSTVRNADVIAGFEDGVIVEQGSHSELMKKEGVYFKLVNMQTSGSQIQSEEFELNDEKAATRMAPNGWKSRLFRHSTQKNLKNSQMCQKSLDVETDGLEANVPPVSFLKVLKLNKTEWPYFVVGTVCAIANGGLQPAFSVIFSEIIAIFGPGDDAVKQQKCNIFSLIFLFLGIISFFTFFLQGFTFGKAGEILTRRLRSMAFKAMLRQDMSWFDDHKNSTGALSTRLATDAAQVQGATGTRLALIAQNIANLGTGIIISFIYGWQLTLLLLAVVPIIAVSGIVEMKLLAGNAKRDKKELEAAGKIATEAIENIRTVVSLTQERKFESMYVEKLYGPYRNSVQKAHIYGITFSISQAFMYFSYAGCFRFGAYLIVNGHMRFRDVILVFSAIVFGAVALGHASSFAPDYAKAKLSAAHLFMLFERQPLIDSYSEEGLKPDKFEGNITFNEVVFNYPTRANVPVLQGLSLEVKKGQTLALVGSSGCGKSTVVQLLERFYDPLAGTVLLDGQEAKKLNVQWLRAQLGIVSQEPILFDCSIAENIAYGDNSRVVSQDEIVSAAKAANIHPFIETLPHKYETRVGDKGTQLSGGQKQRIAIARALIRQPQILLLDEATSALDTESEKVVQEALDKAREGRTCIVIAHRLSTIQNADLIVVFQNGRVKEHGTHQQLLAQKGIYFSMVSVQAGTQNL
Experiment: Inhibition of ABCB4-mediated digoxin transport, bidirectional assay in Abcb1KO-MDCKII-ABCB4 cells
Type: cell-based
Settings: digoxin 1 µM probe, ABCB4 cell monolayers, samples at 3 h; read-out: IC50 (µM), Based on Digoxin ER
QUANTITY_KIND: IC50 (µM)

a = COCC(=O)O[C@]1(CCN(C)CCCc2nc3ccccc3[nH]2)CCc2cc(F)ccc2[C@@H]1C(C)C [mibefradil]
b = COc1ccccc1OCCNCC(O)COc1cccc2[nH]c3ccccc3c12 (stereo not shown) [carvedilol]
Lower value of IC50 belongs to which: a or b ? Write the label of whichever entry you select.
a

----------
Molecular target: human ABCB4 (Homo sapiens)
Construct: expressed in transfected cells; host or cells: Abcb1KO-MDCKII (canine kidney, Abcb1 knockout), lentiviral transduction, single clone
Assay: Inhibition of ABCB4-mediated digoxin transport, bidirectional assay in Abcb1KO-MDCKII-ABCB4 cells
Type: cell-based
Details: digoxin 1 µM probe, ABCB4 cell monolayers, samples at 3 h; read-out: IC50 (µM), Based on Digoxin ER
QUANTITY_KIND: IC50 (µM)

a = COc1cc2c(cc1OC)CN(CCc1ccc(NC(=O)c3cccc4c(=O)c5cccc(OC)c5[nH]c34)cc1)CC2
b = COc1cc2nc(N3CCN(C(=O)c4ccco4)CC3)nc(N)c2cc1OC
c = O[C@@H](COc1cccc2ncccc12)CN1CCN([C@@H]2c3ccccc3[C@@H]3[C@H](c4ccccc42)C3(F)F)CC1
Sort the entries above numerically by IC50, high end first. Output spec: a listing of the labels in the requested order.
b, a, c

----------
Biological target: human ABCB4 (Homo sapiens)
Construct: expressed in transfected cells; host or cells: Abcb1KO-MDCKII (canine kidney, Abcb1 knockout), lentiviral transduction, single clone
Assay: Bidirectional transport (efflux ratio) in Abcb1KO-MDCKII-ABCB4 cells, substrate test
Format: in vitro ADME
Conditions: human, pH 7.4; 1 µM, ABCB4 cells; read-out: Efflux ratio (ER)
QUANTITY_KIND: efflux ratio at 1 µM

Entry C=C[C@H]1C[N@@]2CC[C@H]1C[C@@H]2[C@@H](O)c1ccnc2ccc(OC)cc12 has what efflux ratio at 1 µM?
< 2

----------
Target: canine Abcb1 (Canis lupus familiaris, UniProt C0KKU9)
Sequence (C0KKU9 1-1281): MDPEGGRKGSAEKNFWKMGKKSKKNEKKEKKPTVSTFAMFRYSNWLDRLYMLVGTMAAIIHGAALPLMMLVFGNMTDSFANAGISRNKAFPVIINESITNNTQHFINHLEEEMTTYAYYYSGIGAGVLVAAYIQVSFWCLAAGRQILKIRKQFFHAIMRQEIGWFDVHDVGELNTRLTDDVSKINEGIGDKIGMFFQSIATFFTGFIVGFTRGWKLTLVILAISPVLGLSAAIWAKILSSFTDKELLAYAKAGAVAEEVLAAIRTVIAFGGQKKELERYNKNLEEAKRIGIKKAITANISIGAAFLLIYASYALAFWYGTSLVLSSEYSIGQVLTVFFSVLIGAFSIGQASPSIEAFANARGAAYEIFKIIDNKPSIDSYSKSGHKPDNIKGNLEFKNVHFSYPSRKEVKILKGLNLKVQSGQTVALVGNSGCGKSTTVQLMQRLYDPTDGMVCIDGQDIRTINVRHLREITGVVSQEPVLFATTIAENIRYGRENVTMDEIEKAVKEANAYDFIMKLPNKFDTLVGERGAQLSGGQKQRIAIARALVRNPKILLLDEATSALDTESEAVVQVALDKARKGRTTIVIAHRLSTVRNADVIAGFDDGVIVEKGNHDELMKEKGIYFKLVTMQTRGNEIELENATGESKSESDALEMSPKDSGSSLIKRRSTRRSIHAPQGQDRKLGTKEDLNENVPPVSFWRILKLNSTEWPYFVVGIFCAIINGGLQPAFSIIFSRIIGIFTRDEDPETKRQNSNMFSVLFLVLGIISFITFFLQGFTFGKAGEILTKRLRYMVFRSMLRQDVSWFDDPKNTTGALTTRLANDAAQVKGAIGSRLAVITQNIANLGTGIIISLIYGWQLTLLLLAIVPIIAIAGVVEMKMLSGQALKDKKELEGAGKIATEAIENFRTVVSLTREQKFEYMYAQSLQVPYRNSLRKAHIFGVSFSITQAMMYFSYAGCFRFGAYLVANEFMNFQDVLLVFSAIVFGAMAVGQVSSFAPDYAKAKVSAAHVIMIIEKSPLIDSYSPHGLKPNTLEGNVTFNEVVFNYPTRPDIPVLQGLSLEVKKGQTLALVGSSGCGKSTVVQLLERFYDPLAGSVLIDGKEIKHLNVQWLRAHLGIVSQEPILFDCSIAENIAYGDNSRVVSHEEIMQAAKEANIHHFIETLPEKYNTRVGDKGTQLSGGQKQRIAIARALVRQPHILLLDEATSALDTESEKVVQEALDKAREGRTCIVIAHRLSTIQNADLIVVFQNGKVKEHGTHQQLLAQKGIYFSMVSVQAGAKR
Experiment: in vitro
Details: dog, MDCK, pH 7.4
QUANTITY_KIND: efflux ratio at 1 µM
Lab note: jot down the number only; don't add units.

Entry C[C@H]1O[C@@H](O[C@H]2[C@@H](O)C[C@H](O[C@H]3[C@@H](O)C[C@H](O[C@H]4CC[C@@]5(C)[C@H](CC[C@@H]6[C@@H]5C[C@@H](O)[C@]5(C)[C@@H](C7=CC(=O)OC7)CC[C@]65O)C4)O[C@@H]3C)O[C@@H]2C)C[C@H](O)[C@@H]1O [digoxin] has what efflux ratio at 1 µM?
4.74

----------
Molecular target: human ABCB4 (Homo sapiens)
Construct: expressed in transfected cells; host or cells: Abcb1KO-MDCKII (canine kidney, Abcb1 knockout), lentiviral transduction, single clone
Experiment: Inhibition of ABCB4-mediated digoxin transport, bidirectional assay in Abcb1KO-MDCKII-ABCB4 cells
Type: cell-based
Settings: digoxin 1 µM probe, ABCB4 cell monolayers, samples at 3 h; read-out: IC50 (µM), Based on Digoxin ER
QUANTITY_KIND: IC50 (µM)

A = COc1ccc([C@@H]2Sc3ccccc3N(CCN(C)C)C(=O)[C@@H]2OC(C)=O)cc1 [diltiazem]
B = CC(C)(C)NC(=O)[C@@H]1C[C@@H]2CCCC[C@@H]2CN1C[C@@H](O)[C@H](Cc1ccccc1)NC(=O)[C@H](CC(N)=O)NC(=O)c1ccc2ccccc2n1 [saquinavir]
Lower value of IC50 belongs to which: A or B ? Write the label of whichever entry you select.
B
(B: 1.4 µM, A: 48.6 µM)

----------
Target: human ABCB4 (Homo sapiens, UniProt P21439)
Construct: expressed in transfected cells; host or cells: Abcb1KO-MDCKII (canine kidney, Abcb1 knockout), lentiviral transduction, single clone
Assay: Inhibition of ABCB4-mediated digoxin transport, bidirectional assay in Abcb1KO-MDCKII-ABCB4 cells
Format: cell-based
Details: digoxin 1 µM probe
QUANTITY_KIND: Effect on ABCB4-mediated digoxin transport, in words

[[record]]
molecule = "CCOC(=O)C1=C(C)NC(C)=C(C(=O)OC)C1c1cccc(Cl)c1Cl (stereo not shown)"
subject_of_test = "human ABCB4 (Homo sapiens, UniProt P21439)"
experimental_value = "no interaction"

[[record]]
molecule = "CC(C)OC(=O)C(C)(C)Oc1ccc(C(=O)c2ccc(Cl)cc2)cc1 [fenofibrate]"
subject_of_test = "human ABCB4 (Homo sapiens, UniProt P21439)"
experimental_value = "no interaction"


----------
Molecular target: human ABCB4 (Homo sapiens)
Construct: expressed in transfected cells; host or cells: Abcb1KO-MDCKII (canine kidney, Abcb1 knockout), lentiviral transduction, single clone
Assay: Inhibition of ABCB4-mediated digoxin transport, bidirectional assay in Abcb1KO-MDCKII-ABCB4 cells
Type: cell-based
Settings: digoxin 1 µM probe, ABCB4 cell monolayers, samples at 3 h; read-out: IC50 (µM), Based on Digoxin ER
QUANTITY_KIND: IC50 (µM)

Below, each entry is followed by its recorded IC50 result.
[[record]]
compound = "CCOC(=O)C1=C(COCCN)NC(C)=C(C(=O)OC)C1c1ccccc1Cl (stereo not drawn) [amlodipine]"
experimental_value = 17.9

[[record]]
compound = "Cc1cccc(C)c1OCC(=O)N[C@@H](Cc1ccccc1)[C@@H](O)C[C@H](Cc1ccccc1)NC(=O)[C@H](C(C)C)N1CCCNC1=O [lopinavir]"
experimental_value = 0.6

[[record]]
compound = "C=C[C@H]1C[N@@]2CC[C@H]1C[C@@H]2[C@@H](O)c1ccnc2ccc(OC)cc12 [quinidine]"
experimental_value = 1.09


a = CNC(=O)c1cc(Oc2ccc(NC(=O)Nc3ccc(Cl)c(C(F)(F)F)c3)cc2)ccn1 [sorafenib]
b = CCC(C)n1ncn(-c2ccc(N3CCN(c4ccc(OCC5COC(Cn6cncn6)(c6ccc(Cl)cc6Cl)O5)cc4)CC3)cc2)c1=O (stereo not drawn) [itraconazole]
Pick one: a or b . Which has the bigger IC50 number? Write the label of whichever entry you select.
a

----------
Target: human ABCB4 (Homo sapiens)
Construct: expressed in transfected cells; host or cells: Abcb1KO-MDCKII (canine kidney, Abcb1 knockout), lentiviral transduction, single clone
Assay: Inhibition of ABCB4-mediated digoxin transport, bidirectional assay in Abcb1KO-MDCKII-ABCB4 cells
Assay type: cell-based
QUANTITY_KIND: IC50 (nM)
Form entry: value (nM) — number only.

[[record]]
compound = "CC(=O)N1CCN(c2ccc(OCC3COC(Cn4ccnc4)(c4ccc(Cl)cc4Cl)O3)cc2)CC1 (stereo not shown) [ketoconazole]"
experimental_value = 560

[[record]]
compound = "C/C=C/C[C@@H](C)C(=O)[C@H]1C(=O)N[C@@H](C(C)C)C(=O)N(C)CC(=O)N(C)[C@@H](CC(C)C)C(=O)N[C@@H](C(C)C)C(=O)N(C)[C@@H](CC(C)C)C(=O)N[C@@H](C)C(=O)N[C@H](C)C(=O)N(C)[C@@H](CC(C)C)C(=O)N(C)[C@@H](CC(C)C)C(=O)N(C)[C@@H](C(C)C)C(=O)N1C [valspodar]"
experimental_value = 150


The record that follows has no IC50 shown yet.
Entry CCc1oc2ccccc2c1C(=O)c1cc(Br)c(O)c(Br)c1 [benzbromarone] has what IC50?
19900

----------
Biological target: human ABCB4 (Homo sapiens)
Construct: expressed in transfected cells; host or cells: Abcb1KO-MDCKII (canine kidney, Abcb1 knockout), lentiviral transduction, single clone
Test: Inhibition of ABCB4-mediated digoxin transport, bidirectional assay in Abcb1KO-MDCKII-ABCB4 cells
Assay type: cell-based
Details: digoxin 1 µM probe
QUANTITY_KIND: Effect on ABCB4-mediated digoxin transport, in words

[[record]]
molecule = "CC(C)CN(C[C@@H](O)[C@H](Cc1ccccc1)NC(=O)O[C@H]1CO[C@H]2OCC[C@H]21)S(=O)(=O)c1ccc(N)cc1 [darunavir]"
experimental_value = "ABCB4 inhibitors"

[[record]]
molecule = "C=C[C@@H]1C[C@]1(NC(=O)[C@@H]1C[C@@H](Oc2ncc(OC)c3ccc(Cl)cc23)CN1C(=O)[C@@H](NC(=O)OC(C)(C)C)C(C)(C)C)C(=O)NS(=O)(=O)C1CC1 [asunaprevir]"
experimental_value = "ABCB4 inhibitors"


----------
Molecular target: human ABCB4 (Homo sapiens, UniProt P21439)
Construct: expressed in transfected cells; host or cells: Abcb1KO-MDCKII (canine kidney, Abcb1 knockout), lentiviral transduction, single clone
Assay: Inhibition of ABCB4-mediated digoxin transport, bidirectional assay in Abcb1KO-MDCKII-ABCB4 cells
Format: cell-based
Conditions: digoxin 1 µM probe, ABCB4 cell monolayers, samples at 3 h; read-out: IC50 (µM), Based on Digoxin ER
QUANTITY_KIND: IC50

Below, each entry is followed by its recorded IC50 result.
[[record]]
compound = "COc1ccnc(C[S+]([O-])c2nc3ccc(OC(F)F)cc3[nH]2)c1OC (stereo not shown)"
experimental_value = "> 10 µM"

[[record]]
compound = "CC[C@H]1OC(=O)[C@H](C)[C@@H](O[C@H]2C[C@@](C)(OC)[C@@H](O)[C@H](C)O2)[C@H](C)[C@@H](O[C@@H]2O[C@H](C)C[C@H](N(C)C)[C@H]2O)[C@](C)(OC)C[C@@H](C)C(=O)[C@H](C)[C@@H](O)[C@]1(C)O"
experimental_value = "> 80 µM"

[[record]]
compound = "Nc1cc(N2CCCCC2)nc(N)[n+]1[O-]"
experimental_value = "> 20 µM"


The record that follows has no IC50 shown yet.
Entry NC(=O)N1c2ccccc2C=Cc2ccccc21 [carbamazepine] has what IC50?
> 80 µM
